# Target of assay: Epidermal growth factor receptor (Homo sapiens)
# Assay info: Inhibition of wild type EGFR in human A549 cells assessed as inhibition of phosphorylation at Y1068 after 2 hrs by sandwich ELISA method
# Format: cell-based
# Sequence (P00533 whole entry): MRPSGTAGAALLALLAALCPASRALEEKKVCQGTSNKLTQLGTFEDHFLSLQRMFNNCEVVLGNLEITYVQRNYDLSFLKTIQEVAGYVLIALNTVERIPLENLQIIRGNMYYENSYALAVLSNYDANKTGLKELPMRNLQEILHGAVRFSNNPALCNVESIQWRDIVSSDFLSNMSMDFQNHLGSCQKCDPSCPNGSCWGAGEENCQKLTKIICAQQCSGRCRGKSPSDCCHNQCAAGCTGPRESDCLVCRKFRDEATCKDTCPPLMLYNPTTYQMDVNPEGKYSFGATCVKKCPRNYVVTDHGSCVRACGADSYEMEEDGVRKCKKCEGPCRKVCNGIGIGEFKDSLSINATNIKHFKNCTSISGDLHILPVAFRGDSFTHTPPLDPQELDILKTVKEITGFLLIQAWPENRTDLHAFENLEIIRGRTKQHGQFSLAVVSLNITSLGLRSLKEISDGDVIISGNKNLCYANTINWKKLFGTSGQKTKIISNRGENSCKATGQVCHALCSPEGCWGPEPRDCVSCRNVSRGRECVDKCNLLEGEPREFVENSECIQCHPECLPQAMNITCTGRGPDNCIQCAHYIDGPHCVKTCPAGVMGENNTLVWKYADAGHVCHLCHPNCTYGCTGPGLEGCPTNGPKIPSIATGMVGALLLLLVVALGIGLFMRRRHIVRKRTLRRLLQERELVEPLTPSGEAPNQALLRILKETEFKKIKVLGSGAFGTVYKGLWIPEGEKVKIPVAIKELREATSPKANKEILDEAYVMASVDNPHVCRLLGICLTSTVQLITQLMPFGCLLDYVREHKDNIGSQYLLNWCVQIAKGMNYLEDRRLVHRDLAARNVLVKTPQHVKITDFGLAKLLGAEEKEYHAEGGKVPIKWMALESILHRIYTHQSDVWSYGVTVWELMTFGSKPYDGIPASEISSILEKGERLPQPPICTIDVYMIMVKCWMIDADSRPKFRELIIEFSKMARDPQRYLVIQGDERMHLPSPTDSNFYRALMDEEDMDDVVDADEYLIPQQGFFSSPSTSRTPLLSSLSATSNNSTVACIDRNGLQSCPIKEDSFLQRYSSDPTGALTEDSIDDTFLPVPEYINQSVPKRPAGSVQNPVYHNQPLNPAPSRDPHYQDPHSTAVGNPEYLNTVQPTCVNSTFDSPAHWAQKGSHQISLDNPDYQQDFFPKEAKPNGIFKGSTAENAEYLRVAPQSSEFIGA
pIC50: −log10 of the molar value.

>  <Input smiles>
C=CC(=O)N[C@@H]1CN(c2nc(Nc3cn(C)nc3C)c3ncn(C(C)C)c3n2)C[C@H]1F

>  <pIC50>
5.00

$$$$

###

# Target of assay: Epidermal growth factor receptor (Homo sapiens)
# Assay info: Inhibition of EGFR deletion/T790M mutant in human PC9-DRH cells assessed as inhibition of phosphorylation at Y1068 after 2 hrs by sandwich ELISA method
# Type: cell-based
# Sequence (P00533 25-1210 limits assumed, stated change not applied): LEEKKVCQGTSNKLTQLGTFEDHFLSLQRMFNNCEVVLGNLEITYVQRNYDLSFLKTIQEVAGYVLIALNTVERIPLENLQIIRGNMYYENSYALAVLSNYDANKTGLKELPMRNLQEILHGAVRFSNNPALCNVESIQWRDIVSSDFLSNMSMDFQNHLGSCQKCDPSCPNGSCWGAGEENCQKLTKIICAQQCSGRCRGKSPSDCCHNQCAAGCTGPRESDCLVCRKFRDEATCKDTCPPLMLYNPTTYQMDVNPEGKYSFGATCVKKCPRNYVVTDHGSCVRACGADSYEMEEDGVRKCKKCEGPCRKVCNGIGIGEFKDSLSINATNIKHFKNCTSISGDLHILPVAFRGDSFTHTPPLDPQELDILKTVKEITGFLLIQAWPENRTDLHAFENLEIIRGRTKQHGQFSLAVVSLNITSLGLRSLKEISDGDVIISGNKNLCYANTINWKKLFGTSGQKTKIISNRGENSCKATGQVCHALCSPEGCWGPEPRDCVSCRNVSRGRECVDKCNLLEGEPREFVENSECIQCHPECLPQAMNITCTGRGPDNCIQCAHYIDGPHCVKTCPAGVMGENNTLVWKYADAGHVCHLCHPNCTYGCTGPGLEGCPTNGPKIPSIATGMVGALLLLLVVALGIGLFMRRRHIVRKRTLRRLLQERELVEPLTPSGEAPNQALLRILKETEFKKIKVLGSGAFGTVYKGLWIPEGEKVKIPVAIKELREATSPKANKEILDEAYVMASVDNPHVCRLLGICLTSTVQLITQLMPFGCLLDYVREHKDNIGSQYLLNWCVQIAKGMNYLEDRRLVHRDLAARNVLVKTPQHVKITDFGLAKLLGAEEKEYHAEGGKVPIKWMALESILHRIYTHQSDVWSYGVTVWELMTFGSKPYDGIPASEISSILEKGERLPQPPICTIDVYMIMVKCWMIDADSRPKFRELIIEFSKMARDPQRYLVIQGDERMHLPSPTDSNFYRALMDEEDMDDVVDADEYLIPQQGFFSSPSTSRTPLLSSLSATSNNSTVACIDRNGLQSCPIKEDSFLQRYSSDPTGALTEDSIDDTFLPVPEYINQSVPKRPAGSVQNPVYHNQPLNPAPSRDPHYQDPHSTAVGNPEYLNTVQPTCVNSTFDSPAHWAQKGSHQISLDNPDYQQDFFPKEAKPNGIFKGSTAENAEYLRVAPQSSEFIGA

>  <Input smiles>
C=CC(=O)N[C@@H]1CN(c2nc(Nc3cn(C)nc3C)c3ncn(C(C)C)c3n2)C[C@H]1F

>  <IC50>
2.13 µM

$$$$
>  <Input smiles>
C=CC(=O)N[C@@H]1CN(c2nc(Nc3cn(CC)nc3OC)c3ncn(C)c3n2)C[C@H]1F

>  <IC50>
0.001 µM

$$$$
>  <Input smiles>
C=CC(=O)N1C[C@@H]2CN(c3nc(Nc4ccc(N5CCN(C)CC5)cc4)c4ncn(C(C)C)c4n3)C[C@@H]2C1

>  <IC50>
0.018 µM

$$$$
